# Procedure Details: qHTS Assay for Spectroscopic Profiling in 4-MU Spectral Region
# Measurement Conditions: compound autofluorescence, 340/450 nm, 4-MU equivalents
About 6,200 (11%) of roughly 59,000 compounds were called active. Inconclusive results (about 9%) are left out. No stated cut-off is given here; in the data, active means max dye-equivalent concentration above about 10 nM; inconclusive means mostly about 1.1 nM to 9.6 nM; inactive means weaker than that. The list comes from a sample in which actives are over-represented; it also holds close analogues and randomly drawn compounds.
Entry note: the call must match one of 1.0 = active, 0.0 = inactive

Query: Can you look up the reported call for CCOC(=O)N1CCN(C(=O)CNC(=O)Cc2ccc(Cl)cc2)CC1 for me?
Reply: 0.0

Query: Can you look up the reported call for C#CCNc1nc(C(C)C)nc2c1nnn2Cc1ccccc1F for me?
Reply: 0.0

Query: Can you look up the reported call for O=C(O)C1CCCN1S(=O)(=O)c1ccc2c(c1)CCC2 (stereo unspecified) for me?
Reply: 0.0

Query: Can you look up the reported call for CCOC(=O)N1CCN(C(=O)c2ccc3nc4cc(Cl)ccc4c(=O)n3c2)CC1 for me?
Reply: 1.0

Query: Can you look up the reported call for CCCSC1=C(C#N)C(c2ccccc2C)C(C(=O)OC)C(=O)N1 (stereo unspecified) for me?
Reply: 0.0

Query: Can you look up the reported call for CCCCNC(=O)c1ccccc1NC(=O)c1ccccc1N(C)S(C)(=O)=O for me?
Reply: 0.0

Query: Can you look up the reported call for CCOC(=O)CN(C(=O)CN1CCOCC1)c1ccc(Br)cc1 for me?
Reply: 0.0

Query: Can you look up the reported call for COc1ccc(OC)c(NC(=O)CN2CCN(C(=O)c3ccco3)CC2)c1 for me?
Reply: 0.0

Query: Can you look up the reported call for Cc1ccc2c(c1)C(O)(CC(=O)c1cccnc1)C(=O)N2 (stereo unspecified) for me?
Reply: 0.0

Query: Can you look up the reported call for CC(C)(C)c1nc(NCC2CCCO2)c2nnn(Cc3ccccc3)c2n1 (stereo unspecified) for me?
Reply: 0.0

Query: Can you look up the reported call for COc1ccc(NC(=O)N2CC3(CCN(C(C)=O)CC3)C2)cc1 for me?
Reply: 0.0

----------
# Procedure Details: qHTS Assay for Spectroscopic Profiling in 4-MU Spectral Region
# Measurement Conditions: compound autofluorescence, 340/450 nm, 4-MU equivalents
Hit rate of the full screen: of about 59,000 compounds, about 6,200 (11%) were called active. Roughly 9% stayed inconclusive and do not appear here. Cut-off read from the data, not from the text of the source: active = max dye-equivalent concentration above about 10 nM; inconclusive = mostly about 1.1 nM to 9.6 nM; inactive = weaker than that. The entries come from a sample that favours actives as a whole.
Entry note: the call must match one of 1 (yes) = active, 0 (no) = inactive

Query: Can you look up the reported call for Cc1nc(SCC(=O)Nc2cc(C)on2)c2c3c(sc2n1)CCCC3 for me?
Reply: 0 (no)

Query: Can you look up the reported call for CCOC(=O)c1ccc(N2C(=O)CC(N3CC(C)OC(C)C3)C2=O)cc1 (stereo unspecified) for me?
Reply: 0 (no)

Query: Can you look up the reported call for CCOC(=O)N1CC=C2C(C#N)=C(N)C(C#N)(C#N)[C@H](c3cccs3)[C@H]2C1 for me?
Reply: 1 (yes)

Query: Can you look up the reported call for CC1(C)Cc2c(sc3nc4n(c(=N)c23)CCCCC4)CO1 for me?
Reply: 0 (no)

Query: Can you look up the reported call for Cc1ccc(-n2c(N)c(C(=O)N3CCOCC3)sc2=S)c(C)c1 for me?
Reply: 0 (no)

Query: Can you look up the reported call for CC(C)Cn1c(N)c(C(=O)NCc2cccs2)c2nc3ccccc3nc21 for me?
Reply: 1 (yes)

Query: Can you look up the reported call for CCOC(=O)c1cc2occc2n1CC(=O)NC1CCC(C)CC1 (stereo unspecified) for me?
Reply: 0 (no)

Query: Can you look up the reported call for Cc1noc(C)c1-c1nccc(N2CCOCC2)n1 for me?
Reply: 0 (no)

Query: Can you look up the reported call for NCCNCC1CCNCC1 for me?
Reply: 0 (no)

Query: Can you look up the reported call for CCOC(=O)Cn1c(SC)nc2sc3c(c2c1=O)CC(C)(C)OC3 for me?
Reply: 0 (no)

Query: Can you look up the reported call for CS(=O)(=O)N(CC(=O)NCc1ccco1)c1ccc2c(c1)OCO2 for me?
Reply: 1 (yes)

Query: Can you look up the reported call for CC(C)c1ccc(-c2nn[nH]n2)cc1 for me?
Reply: 0 (no)

Query: Can you look up the reported call for CS(=O)(=O)N(CC(=O)N1CCN(Cc2ccc3c(c2)OCO3)CC1)c1ccc2c(c1)OCO2 for me?
Reply: 0 (no)

Query: Can you look up the reported call for O=C(Cn1c(=O)sc2ccccc21)Nc1ccc2c(c1)OCCO2 for me?
Reply: 0 (no)

Query: Can you look up the reported call for COc1ccc(NS(=O)(=O)c2ccc(NC(=O)C(C)(C(F)(F)F)C(F)(F)F)cc2)nn1 for me?
Reply: 1 (yes)

Query: Can you look up the reported call for CCOc1cccc(NC(=O)C2CCCN(S(=O)(=O)c3ccc(OC)cc3)C2)c1 (stereo unspecified) for me?
Reply: 0 (no)

Query: Can you look up the reported call for C=CCn1c(C(C)NC(=O)CC)nc2ccccc21 (stereo unspecified) for me?
Reply: 0 (no)

Query: Can you look up the reported call for CC1=C(C(=O)Nc2ccccc2)C(c2cccs2)C(C#N)=C(SCC#N)N1 (stereo unspecified) for me?
Reply: 0 (no)

Query: Can you look up the reported call for C=CCn1c(N)c(C(=O)OCC(C)C)c2nc3ccccc3nc21 for me?
Reply: 1 (yes)

Query: Can you look up the reported call for CCNS(=O)(=O)c1ccc(NC(=O)Nc2cccc(C(F)(F)F)c2)cc1 for me?
Reply: 0 (no)

Query: Can you look up the reported call for O=C(O)CCCc1ccccc1 for me?
Reply: 0 (no)

Query: Can you look up the reported call for CCOC(=O)Nc1ccc2c(c1)N(C(=O)CN1CCN3CCCC3C1)c1ccccc1CC2 (stereo unspecified) for me?
Reply: 0 (no)

Query: Can you look up the reported call for Cc1ccc(C(=O)N2CCCCCC2)cc1Br for me?
Reply: 0 (no)

Query: Can you look up the reported call for COc1ccc(OC)c(N=Cc2c(O)[nH]c3ccccc23)c1 for me?
Reply: 1 (yes)

Query: Can you look up the reported call for O=C(c1ccco1)N1CCN(C(=O)C2CC(c3ccc(Cl)c(Cl)c3)=NO2)CC1 (stereo unspecified) for me?
Reply: 0 (no)

Query: Can you look up the reported call for Cc1ccc(-n2ncc3c(N4CCN(c5ccc(F)cc5)CC4)ncnc32)c(C)c1 for me?
Reply: 0 (no)

Query: Can you look up the reported call for CCN(CCCCOC(=O)c1ccc(OC)c(OC)c1)C(C)Cc1ccc(OC)cc1 (stereo unspecified) for me?
Reply: 0 (no)

Query: Can you look up the reported call for CCC(C(=O)NC1CCCC1)N(C(=O)c1snc(C(N)=O)c1N)c1ccc2c(c1)OCCO2 (stereo unspecified) for me?
Reply: 0 (no)

Query: Can you look up the reported call for COC(=O)c1[nH]c2ccccc2c1NS(=O)(=O)c1ccc(OC)cc1OC for me?
Reply: 0 (no)

Query: Can you look up the reported call for COCCNC(=O)C(c1ccc(C)o1)N(Cc1cccs1)C(=O)c1snc(C(N)=O)c1N (stereo unspecified) for me?
Reply: 1 (yes)

Query: Can you look up the reported call for O=C(c1cc(-c2cccs2)on1)N1CCCCC1 for me?
Reply: 0 (no)

Query: Can you look up the reported call for Cc1nnc(SCC(=O)NCc2cccs2)[nH]c1=O for me?
Reply: 0 (no)

Query: Can you look up the reported call for Cc1ccc(-c2noc(CCC(N)=O)n2)cc1 for me?
Reply: 0 (no)

Query: Can you look up the reported call for c1ccc2[nH]c(NCCN3CCOCC3)nc2c1 for me?
Reply: 0 (no)

Query: Can you look up the reported call for O=C(O)Cc1ccc(NC(=O)c2cccs2)cc1 for me?
Reply: 0 (no)

Query: Can you look up the reported call for CCCOc1cccc(C(=O)Nc2nnn(CCC)n2)c1 for me?
Reply: 0 (no)

Query: Can you look up the reported call for CCOc1ccccc1NC(=O)Nc1cc(OC)ccc1OC for me?
Reply: 0 (no)

Query: Can you look up the reported call for CCN(CC(=O)NCc1cccs1)c1nnnn1-c1ccccc1 for me?
Reply: 0 (no)

Query: Can you look up the reported call for Fc1ccc2[nH]c3c(N4CCSCC4)ncnc3c2c1 for me?
Reply: 1 (yes)

Query: Can you look up the reported call for COc1cc(NS(=O)(=O)c2ccc(NC(C)=O)cc2)cc(OC)c1 for me?
Reply: 0 (no)

Query: Can you look up the reported call for CC(=O)C1=C(O)C(=O)N(c2ccc(S(N)(=O)=O)cc2)C1c1ccccc1F (stereo unspecified) for me?
Reply: 1 (yes)

Query: Can you look up the reported call for CCCC(NC(=O)c1ccccc1)c1nc2ccccc2n1Cc1ccc(C(=O)OC)o1 (stereo unspecified) for me?
Reply: 0 (no)

Query: Can you look up the reported call for CCn1ccnc1C[C@@H]1COc2ccccc2O1 for me?
Reply: 0 (no)

Query: Can you look up the reported call for Cc1cc(C)c2nc(SCCC#N)nc(C)c2c1 for me?
Reply: 0 (no)

Query: Can you look up the reported call for CC1(C)Cc2c(C#N)c(SCc3nc4ccccc4[nH]3)nc(N3CCOCC3)c2CO1 for me?
Reply: 1 (yes)

Query: Can you look up the reported call for COC(=O)[C@H](C)NC(=O)Nc1ccc(OC(F)(F)F)cc1 for me?
Reply: 0 (no)
